Give TGI for every item shown.
- Tested on: OVCAR-3 ovarian
- assay explanation: NCI tumour cell line growth inhibition, 48 h
Answers are plain numbers, in µM.

Please report TGI for every entry that follows.
1. COC(=O)C1=C(C(=O)OC)SC(=CC#CC=C2SC(C(=O)OC)=C(C(=O)OC)S2)S1
2. COc1cc(C(c2c(O)c3ccccc3oc2=O)c2c(O)c3ccccc3oc2=O)cc(Br)c1O

Response:
1. 17
2. 30.9

State recorded TGI for all listed compounds.
1. Nc1ccccc1C#C/C=C\C#Cc1ccccc1[N+](=O)[O-]
2. O=[N+]([O-])c1ccc(NC(=S)N=Nc2c(O)[nH]c3ccc([N+](=O)[O-])cc23)cc1

Response:
1. 37
2. 47.5
